# TARGET OR SYSTEM: serum sample IHUS#B09032311A20 (pre-existing antibodies against ISV)
# MEASUREMENT DESCRIPTION: ECL drug displacement assay, variant as competitor against labelled SEQ ID NO:1
RECORDED ENDPOINT: % reduction (%)

INSERT INTO measurements (binder, test_value) VALUES
  ('Example 1C: (A14P, R39Q, K83R, T91Y, Q108L)-QA (VHH) VHH: EVQLVESGGGLVQPGGSLRLSCAASGRTFNNYAMGWFRQAPGKEREFVAAITRSGVRSGVSAIYGDSVKDRFTISRDNAKNTLYLQMNSLRPEDTAVYYCAASAIGSGALRRFEYDYSGQGTLVTVSS', 18),
  ('Example 1C: (Q108L) (VHH) VHH: EVQLVESGGGLVQAGGSLRLSCAASGRTFNNYAMGWFRRAPGKEREFVAAITRSGVRSGVSAIYGDSVKDRFTISRDNAKNTLYLQMNSLKPEDTAVYTCAASAIGSGALRRFEYDYSGQGTLVTVSS', 62),
  ('Example 1C: (A14P, K83R, Q108L) (VHH) VHH: EVQLVESGGGLVQPGGSLRLSCAASGRTFNNYAMGWFRRAPGKEREFVAAITRSGVRSGVSAIYGDSVKDRFTISRDNAKNTLYLQMNSLRPEDTAVYTCAASAIGSGALRRFEYDYSGQGTLVTVSS', 97),
  ('Example 1c: (A14P, R39Q, K83R,T91Y, Q108L) (VHH) VHH: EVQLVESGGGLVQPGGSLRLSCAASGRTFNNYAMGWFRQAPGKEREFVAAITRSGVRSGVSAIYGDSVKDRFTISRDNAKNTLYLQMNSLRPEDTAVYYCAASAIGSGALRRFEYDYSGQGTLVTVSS', 97),
  ('Example 1C: (A14P, R39Q, K83R, T91Y, Q108L)-3A (VHH) VHH: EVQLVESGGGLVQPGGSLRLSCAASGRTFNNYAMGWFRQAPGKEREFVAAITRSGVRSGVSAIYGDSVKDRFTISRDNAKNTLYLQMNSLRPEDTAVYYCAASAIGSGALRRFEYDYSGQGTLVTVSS', 18);

[A] Example 1C: wildtype (VHH) VHH: EVQLVESGGGLVQAGGSLRLSCAASGRTFNNYAMGWFRRAPGKEREFVAAITRSGVRSGVSAIYGDSVKDRFTISRDNAKNTLYLQMNSLKPEDTAVYTCAASAIGSGALRRFEYDYSGQGTQVTVSS
[B] Example 1C: (A14P) (VHH) VHH: EVQLVESGGGLVQPGGSLRLSCAASGRTFNNYAMGWFRRAPGKEREFVAAITRSGVRSGVSAIYGDSVKDRFTISRDNAKNTLYLQMNSLKPEDTAVYTCAASAIGSGALRRFEYDYSGQGTQVTVSS
For the pair A and B , which member has the lower % reduction number? // output: label of the selected item
A
(A: 53%, B: 96%)
